# Test system: HT-29
# Experimental Protocol: NCI tumour cell line growth inhibition, 48 h
Active and inactive are the calls of the source. Rule as the data show it: active = GI50 up to about 1.1 µM and inactive = higher.
Answer with one of the outcomes T = active, F = inactive

Illustrative cases are given below, each with its answer.
O=C1C2CC=CCC2C(=O)C12CCc1ccccc12 (centres undefined): F
[O-][S+]1c2ccccc2N=C(c2ccc3ccccc3c2)CC1C1=CC=CCC1 (centres undefined): F
CC(C)c1ccc2c(c1)[C@@]1(C)CC[C@H](C)C(C)(C)C1CC2 (some centres undefined): F
Clc1ccc(-c2cc(-c3cc4cc(Br)ccc4nc3Cl)on2)cc1: F
CC(C)=CC(=O)CC(=O)C(=O)Nc1ccc(Cl)c(Cl)c1: F
O=C(O)Cc1ccccc1: F
O=C1CSC2(CC(/C=C/c3cccc(Br)c3)=NN2c2cccc(S(=O)(=O)O)c2)N1c1nc2ccccc2s1 (centres undefined): F
O=C1OC2C(O)COC2(O)C1(O)Cc1c[nH]c2ccccc12 (centres undefined): F

## Task # fetch the recorded call for COc1ccc(N2C(=O)CC(c3c[nH]c4ccccc34)C2=O)cc1 (centres undefined) here
## Result F

## Task Subsequent entry: COc1ccc(-c2coc3cc(OC)cc(O)c3c2=O)cc1 [4',7-DIMETHOXY-5-HYDROXYGENISTEIN]
## Result F

## Task Also, CCCC[C@H]1C(=O)O[C@H](C)[C@H](NC(=O)c2cccc(NC=O)c2O)C(=O)O[C@@H](C)[C@@H]1OC(=O)CC(C)C [ANTIMYCIN A3] please.
## Result F

## Task Try "O=C(O)c1ccccc1/C=N\N=C1NCCCCN1" next.
## Result F

## Task Also "COC(=O)c1nc(NN)cc(O)c1CCCCCc1c(O)nc(NN)nc1C(=O)OC" ?
## Result F

## Task Repeat for the following molecule: "CN(CC(=O)O)S(=O)(=O)c1ccc2ccccc2c1"
## Result F

## Task Check "C1=N\c2ccc(cc2)/N=C\c2ccccc2OCc2cccc(n2)COc2ccccc2/1" too.
## Result F

## Task Likewise for COC(=O)[C@@]12OC[C@]34[C@H]([C@@H](O)[C@@H]1O)[C@@]1(C)CC(=O)C(O)=C(C)[C@@H]1C[C@H]3OC(=O)[C@H](OC(=O)/C=C(\C)C(C)C)[C@@H]24 [BRUCEANTIN] ?
## Result T

## Task Can you check Cc1cnc(Cl)nc1C(C#N)c1nc2ccccc2n1C (centres undefined) next?
## Result F

## Task And "O=C(NC(C(F)(F)F)(C(F)(F)F)P(=O)(Cc1ccccc1)Cc1ccccc1)C(C(F)(F)F)C(F)(F)F" ?
## Result F

## Task Another molecule: "CCCCSc1nsc(N(C(=O)c2ccccc2)C(=O)c2ccccc2)n1"
## Result F

* * *

Let's look at some compounds and their measured GI50.
# Test system: LXFL 529
# Experimental Protocol: NCI tumour cell line growth inhibition, 48 h
Calls of active or inactive are those of the source. Cut-off read from the data, not from the text of the source: active = GI50 up to about 1.1 µM and inactive = higher.

These solved cases illustrate the format of a correct answer.
c1cnc2c(c1)-n1cccc1C1(CCOCC1)NN2: > 100 µM (inactive)
CC(C)=CC(=O)CC(=O)C(=O)Nc1ccc(Cl)c(Cl)c1: > 100 µM (inactive)
CCN(CC)CC1CCCCN1CC(=O)N1c2cc(Cl)ccc2NC(=O)CC1C (stereo not given): > 100 µM (inactive)
CCOC(=O)NC(=O)c1cn(C(CC)COC(=O)NCCCCCCNC(=O)OCC(CC)n2cc(C(=O)NC(=O)OCC)c(=O)[nH]c2=O)c(=O)[nH]c1=O (stereo not given): > 100 µM (inactive)
COC(=O)C12CC(C3CC31)C1CC12 (stereo not given): > 100 µM (inactive)
N#Cc1cccc(N2C(=O)C3C4C=CC(C3C2=O)C2C(=O)N(c3cccc(C#N)c3)C(=O)C42)c1 (stereo not given): > 46.5 µM (inactive)
COc1cccc(C(=O)N2CCc3ccccc32)c1OC: 74 µM (inactive)
Cc1nc2nnnn2c2c1C(=O)Nc1ccccc1N2: > 100 µM (inactive)

## Task Can you look up GI50 on LXFL 529 for Cc1ccc(/N=C2\N=C(N3CC(C)OC(C)C3)c3ccccc32)cc1 (stereo not given) ?
## Result 18.9 µM (inactive)

## Task Same question for "CC1=Nn2c(nnc2-c2ccc(Cl)cc2)NC(C)(C)C1" please.
## Result > 100 µM (inactive)

* * *

# System: HCT-15
Metric Name: GI50 (µM)
Your answer is read as µM, so omit the unit and give the number.

Examples with answers:
CC(C)c1c(O)c(O)c2c(c1O)C(=O)C(O)=C1C(C)(C)CCC[C@@]12C: 3.66
CN(C)c1ccc(/C=C/c2cc(-c3ccccc3)[n+](C)n2-c2ccccc2)cc1: 3.61

## Task Query (molecule): "Cn1c(=O)c2c(-c3ccccc3)onc2n(C)c1=O" ; field requested: GI50
## Result 21.1

## Task Record: CON(C)C(=O)C(C)N(Cc1ccccc1)Cc1ccccc1 (stereo not given)
## Result 34.8

* * *

# GI50 per entry
# Test system: MCF7
# Experimental Protocol: NCI tumour cell line growth inhibition, 48 h
The source made the active and inactive calls. Rule as the data show it: active = GI50 up to about 1.1 µM and inactive = higher.

// solved cases for GI50 follow
C/C=C(\N=C=S)C(=O)OC1C(COC(C)=O)OC([C@]2(O)CC(=O)C(N)=C(C(=O)O)C2=O)C(O)C1OC1CC(OC)C(O)([C@@H](C)OC(=O)[C@@H](C)CC)C(C)O1 (some centres undefined): 14.5 µM (inactive)
C=C(C)[C@H]1CC(=O)[C@@]2(C)C[C@H]3O[C@]3(C)CC/C=C(\C)CC[C@H]12: 24.8 µM (inactive)

## Task Item under review: "O=[N+]([O-])c1sc2ccc(Cl)cc2c1Nc1ccc(Cl)cc1" . Reported GI50?
## Result > 100 µM (inactive)

## Task Again, but for "Cc1ccc(-c2c(C#N)c(S)n(NS(=O)(=O)c3ccc(C)cc3)c(=O)c2C#N)cc1"
## Result 31.6 µM (inactive)

* * *

# Tested on: A549
# Experimental Protocol: NCI tumour cell line growth inhibition, 48 h
Calls of active or inactive are those of the source. Cut-off read from the data, not from the text of the source: active = GI50 up to about 1.1 µM and inactive = higher.
Would you mind answering with one of these outcomes? active, inactive

Consider the worked cases shown below.
[O-][n+]1c(-c2ccccc2)oc2ccccc21: inactive
COc1ccc(/C=C/C(=O)c2cccc(C(=O)/C=C/c3ccc(OC)c(OC)c3)n2)cc1OC: inactive
Cn1ncc2c(Nc3ccc(Cl)cc3)c3ccccc3nc21: inactive
CCN(CC)c1ccc(/C=C/C2=NN(c3cccc(S(=O)(=O)O)c3)C3(C2)C(Cl)C(=O)N3c2nc3ccccc3s2)cc1 (stereo unspecified): inactive
COC(=O)/C(=N\NC(N)=S)C(C#N)c1ccccc1 (stereo unspecified): inactive
COC(=O)C12CCC(C)(C)CC1C1=CCC3C4(C)CC(O)C(O)C(C)(C(=O)OC)C4CCC3(C)C1(CO)CC2 (stereo unspecified): inactive
O=C1c2cccnc2C(=O)c2c1nc1ccccc1c2-c1cncc(-c2c3c(nc4ccccc24)C(=O)c2cccnc2C3=O)c1: active
CC(=O)O[C@H]1/C(=C/c2ccc(N(C)C)cc2)C[C@H]2[C@@H]3CC=C4C[C@@H](N5CCCC5)CC[C@]4(C)[C@H]3CC[C@]12C: inactive

## Task Look up the recorded call for O=C1c2ccccc2-c2ccc(NC(=O)C3CCCCC3C(=O)O)cc21 (stereo unspecified) in this test.
## Result inactive

## Task Thanks! And O=c1n(-c2ccccc2)c(=O)n2n1C1C=CC2C2C(C1)C2(Cl)Cl (stereo unspecified) ?
## Result inactive

## Task For "COc1ccc(CNc2cnc3ccc(N)cc3n2)cc1" then?
## Result inactive

## Task Then this compound: CC[C@]1(Cc2ccc(OC)c(OC)c2)[C@@H]2C[C@@H](C3OCCO3)ON2O[C@H](OC2CCCC2(c2ccccc2)c2ccccc2)[C@@H]1OC(C)=O (stereo partly specified)
## Result inactive

* * *

Reported GI50 values for the following molecules.
# Tested on: SR
# Experimental Protocol: NCI tumour cell line growth inhibition, 48 h
Active and inactive are the calls of the source. Cut-off read from the data, not from the text of the source: active = GI50 up to about 1.1 µM and inactive = higher.

COc1ccc(Cn2nc(OCc3ccccc3)c3cc([N+](=O)[O-])ccc32)cc1: > 100 µM (inactive)
Cn1c2ccc3cc2c(=S)c2cc(ccc21)OCCOCCOCCOCCOCCO3: > 10 µM (inactive)
CC(=O)O[C@H]1/C(=C/c2ccc(N(C)C)cc2)C[C@H]2[C@@H]3CC=C4C[C@@H](N5CCCC5)CC[C@]4(C)[C@H]3CC[C@]12C: 40 µM (inactive)

## Task Which value of GI50 has been reported for "COc1ccc(/C=C(\NC(=O)c2ccccc2)c2nc3ccccc3[nH]2)cc1OC" in the records?
## Result > 100 µM (inactive)

* * *

# System: MOLT-4
# Experimental Protocol: NCI tumour cell line growth inhibition, 48 h
Active and inactive are the calls of the source. No stated cut-off is given here; in the data, active = GI50 up to about 1.1 µM and inactive = higher.
compounds and their reported GI50

O=C(NNC(=O)c1cc2ccccc2[nH]1)c1cc2ccccc2[nH]1: > 100 µM (inactive)

We next turn to a different compound, shown below.
## Task Fill in the blank: the reported GI50 of CCN(CC)C(=S)SC1CCOP(=O)(N(CCCl)CCCl)N1C (stereo not given) is ____.
## Result 0.439 µM (active)
